molecular target: cytochrome P450 2C8-isoenzyme (Homo sapiens (Human), UniProt P10632); assay: Inhibition of CYP-2C8 (amodiaquine deethylation, human liver microsomes); assay type: in vitro ADME; conditions: amodiaquine 1 μM, 37° C.
Sequence (P10632 whole entry): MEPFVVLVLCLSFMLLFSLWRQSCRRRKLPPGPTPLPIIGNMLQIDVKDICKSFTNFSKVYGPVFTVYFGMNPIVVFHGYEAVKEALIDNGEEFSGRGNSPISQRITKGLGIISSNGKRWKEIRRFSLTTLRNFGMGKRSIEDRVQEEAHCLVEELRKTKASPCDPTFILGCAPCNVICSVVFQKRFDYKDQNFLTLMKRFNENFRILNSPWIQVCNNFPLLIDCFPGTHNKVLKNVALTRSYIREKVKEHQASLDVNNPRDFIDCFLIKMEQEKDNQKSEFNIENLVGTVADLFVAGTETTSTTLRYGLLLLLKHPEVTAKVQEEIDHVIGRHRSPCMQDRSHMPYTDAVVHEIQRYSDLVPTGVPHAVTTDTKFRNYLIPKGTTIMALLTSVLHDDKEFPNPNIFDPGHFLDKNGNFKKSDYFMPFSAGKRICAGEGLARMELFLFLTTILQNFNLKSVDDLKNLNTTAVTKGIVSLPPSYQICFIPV
pIC50: −log10 of the molar value.
OBSERVATION_TYPE: pIC50

[
  {
    "COMPOUND": "Cc1cc(O[C@H]2CCOC2)cc(C)c1-c1ccc(F)c2c1CC[C@H]2Nc1ccc([C@H]2C[C@@H]2C(=O)O)nc1 (mixture of isomers)",
    "pIC50": 4.40
  },
  {
    "COMPOUND": "Cc1cc(OCC2(C)COC2)cc(C)c1-c1ccc(F)c2c1CC[C@H]2Nc1ccc([C@H]2C[C@@H]2C(=O)O)nc1",
    "pIC50": 4.49
  }
]
